assay: Absorption test, pulmonary administration (2 mg/kg) of suspension; type: in vivo, rhesus monkeys; details: rhesus monkey, plasma; pulmonary administration 2 mg/kg, suspension of Preparation Example 1, male rhesus monkeys; relative to intravenous 0.4 mg/kg; read-out: bioavailability (BA)
MEASUREMENT NAME: bioavailability (%)
# number only, unit % dropped from output

Requested read-out: bioavailability. Entry: CC(C)(C)OC(=O)N1CSC[C@H]1C(=O)N[C@@H](CSCC1CCCCC1)C(=O)NC1CCN(Cc2ccccc2)CC1 [compound 1]
93.4
